B1: Probable E3 ubiquitin-protein ligase MID2, residues 191 to 235; numbered along this chain, Q9UJV3 (parent)
chain: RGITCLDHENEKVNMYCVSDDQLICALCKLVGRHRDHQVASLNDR

Variants of: B1
procedureText: abundance fitness (aPCA) (normalised: wild type 0, dead -1); higher = more abundant; growth selection in yeast, the domain comes from the species named
assaySetup: Homo sapiens
In this section we review reported abundance fitness values for a set of variants.
A bare number is all that is needed in reply.

Below, each entry is followed by its recorded abundance fitness result.
[
  {
    "macromoleculeSequence": "RGITCLDHENEKVNMYCVSDDQLHCALCKLVGRHRDHQVASLNDR [I24H]",
    "abundance fitness": -0.197
  },
  {
    "macromoleculeSequence": "RGITCLDHENEKVNMYCVSDDQLICATCKLVGRHRDHQVASLNDR [L27T]",
    "abundance fitness": -0.144
  },
  {
    "macromoleculeSequence": "RGITCLDHENEKVNMYCVSDDQLICALCKLVGRHRDHQVAMLNDR [S41M]",
    "abundance fitness": -0.222
  }
]

// returns reported abundance fitness for input RGITCLDHESEKVNMYCVSDDQLICALCKLVGRHRDHQVASLNDR [N10S]
-0.156

// returns reported abundance fitness for input RGITCLDHENEKVNMYCVSDDQLICALCKLVGRHRDHQVASLVDR [N43V]
-0.042

// returns reported abundance fitness for input RGITCLDHENEKVNMYCWSDDQLICALCKLVGRHRDHQVASLNDR [V18W]
-0.19

// returns reported abundance fitness for input RGITCLDHENEVVNMYCVSDDQLICALCKLVGRHRDHQVASLNDR [K12V]
-0.083

// returns reported abundance fitness for input RGITCLDHENEKVNMYCVSDDQLICALCKLVGRHRDHQVASLNDF [R45F]
0.151

// returns reported abundance fitness for input RGITCLDHENEKVNMYCVSDDQLICALCKLVGRHRDGQVASLNDR [H37G]
-0.283

// returns reported abundance fitness for input RGITCLDHENEKVNMYSVSDDQLICALCKLVGRHRDHQVASLNDR [C17S]
-0.157
